Readings of normalized RNA/DNA level without ligand (log10) for the listed variants
B1: library; a variant is named by its letters at N, in order (parent)
chain: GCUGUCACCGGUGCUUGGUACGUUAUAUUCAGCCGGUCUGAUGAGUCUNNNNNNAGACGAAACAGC

Variants of: B1
Experiment: normalized RNA/DNA level without ligand (relative to sTRSVctl = 100) (log10 (% of sTRSVctl)); HEK293T overexpressing SLC46A1; higher = less ribozyme self-cleavage, higher mRNA level
Conditions: without (6R,S)-folinic acid; ligand present: no
measurement-type: normalized RNA/DNA level without ligand (log10)

variant-identifier: AUUAAG
value: 1.93
//
variant-identifier: GUAAUG
value: 1.94
//
variant-identifier: CUAUAU
value: 2
//
variant-identifier: ACUACC
value: 2.03
//
variant-identifier: CUAGAC
value: 1.98
//
variant-identifier: CUGACG
value: 2
//
variant-identifier: UACAUG
value: 1.76
//
variant-identifier: AGGAGG
value: 1.92
//
variant-identifier: GUAGUA
value: 1.97
//
variant-identifier: AUUUCG
value: 1.96
//
variant-identifier: CACACU
value: 2.01
